Target: human KDR (VEGFR2) on cells (human, UniProt P35968 20-1356); further: test concentration or dose not given here
Sequence (P35968 20-1356): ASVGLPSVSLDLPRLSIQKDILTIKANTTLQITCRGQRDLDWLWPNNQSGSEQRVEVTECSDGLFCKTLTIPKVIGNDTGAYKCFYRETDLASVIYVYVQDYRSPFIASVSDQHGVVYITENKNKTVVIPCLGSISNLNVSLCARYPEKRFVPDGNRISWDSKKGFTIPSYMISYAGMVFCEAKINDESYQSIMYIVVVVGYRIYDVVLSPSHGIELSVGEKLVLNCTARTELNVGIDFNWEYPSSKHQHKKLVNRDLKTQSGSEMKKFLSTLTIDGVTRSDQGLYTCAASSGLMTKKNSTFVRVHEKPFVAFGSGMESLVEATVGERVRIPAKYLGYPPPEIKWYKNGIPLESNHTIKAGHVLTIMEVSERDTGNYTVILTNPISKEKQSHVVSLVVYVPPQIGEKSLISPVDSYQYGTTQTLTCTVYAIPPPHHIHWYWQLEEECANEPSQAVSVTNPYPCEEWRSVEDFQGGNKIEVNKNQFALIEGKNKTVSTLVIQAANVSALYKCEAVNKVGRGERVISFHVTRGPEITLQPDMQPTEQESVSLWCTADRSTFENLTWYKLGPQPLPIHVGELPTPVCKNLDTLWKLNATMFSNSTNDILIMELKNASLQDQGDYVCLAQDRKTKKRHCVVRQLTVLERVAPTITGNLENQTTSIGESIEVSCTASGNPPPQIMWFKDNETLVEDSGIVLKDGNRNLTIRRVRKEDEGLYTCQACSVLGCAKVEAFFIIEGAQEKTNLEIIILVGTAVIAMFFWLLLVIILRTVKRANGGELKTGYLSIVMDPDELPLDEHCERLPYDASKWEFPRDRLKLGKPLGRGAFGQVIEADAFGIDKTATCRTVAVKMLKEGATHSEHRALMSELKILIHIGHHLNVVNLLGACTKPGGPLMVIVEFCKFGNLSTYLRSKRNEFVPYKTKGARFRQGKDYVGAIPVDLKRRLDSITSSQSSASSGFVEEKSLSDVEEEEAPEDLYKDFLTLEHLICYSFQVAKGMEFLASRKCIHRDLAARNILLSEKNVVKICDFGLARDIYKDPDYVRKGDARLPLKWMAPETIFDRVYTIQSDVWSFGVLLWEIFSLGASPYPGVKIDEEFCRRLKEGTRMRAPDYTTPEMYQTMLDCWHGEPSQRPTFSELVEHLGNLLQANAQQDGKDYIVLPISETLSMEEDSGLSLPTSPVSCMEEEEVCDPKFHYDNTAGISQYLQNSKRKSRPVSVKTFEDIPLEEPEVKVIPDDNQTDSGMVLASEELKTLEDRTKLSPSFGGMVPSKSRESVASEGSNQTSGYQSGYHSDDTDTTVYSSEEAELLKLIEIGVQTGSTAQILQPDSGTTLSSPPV
Experiment: cell-based or functional assay
Can you tell me % Inhibition of VEGF165-mediated pTyr Activity, n = 2 for the items I'm about to list?
Give bare numbers, in %.

>  <binder>
anti-KDR monoclonal antibody 32F4 (antibody, V domains shown, Fully human mAb from XenoMouse (IgG2 or IgG4 strain); hybridoma supernatant) VH: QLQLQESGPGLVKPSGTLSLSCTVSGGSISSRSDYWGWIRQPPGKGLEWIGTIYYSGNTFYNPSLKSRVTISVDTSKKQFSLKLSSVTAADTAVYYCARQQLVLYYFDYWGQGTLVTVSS VL: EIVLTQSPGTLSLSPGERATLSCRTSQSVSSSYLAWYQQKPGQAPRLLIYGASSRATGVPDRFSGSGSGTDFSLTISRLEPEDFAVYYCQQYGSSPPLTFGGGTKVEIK

>  <unit text>
%

>  <result value>
76

$$$$

# next binder below
Reported % Inhibition of VEGF165-mediated pTyr Activity, n = 2 for anti-KDR monoclonal antibody 29F7 (antibody, V domains shown, Fully human mAb from XenoMouse (IgG2 or IgG4 strain); hybridoma supernatant) VH: QVQLVQSGAEVKKPGASVKVSCKASGYTFTSYDINWVRQATGQGLEWMGWMNPNSGKTGYAQKFQGRVTMTRSTSISTAYMELSSLRSEDTAVYYCARGGYSNLGWFDPWGQGTLVTVSS VL: DIQMTQSPSSVFASVGDRVTITCRASQGISTWLAWYQQKPGKAPKFLIYAASSLQSGVPSRFSGSGSGTDFTLTISSLQPDDFATYYCQQANNFPFTFGPGTKVDIK was 67
